pIC50 reference
- System tested: Akt1 (Homo sapiens, UniProt P31749, S473D)
- Construct: The version of Akt used in these studies lacks the pleckstrin homology (PH) domain
- Sequence (P31749 118-480 S473D limits assumed, species assumed): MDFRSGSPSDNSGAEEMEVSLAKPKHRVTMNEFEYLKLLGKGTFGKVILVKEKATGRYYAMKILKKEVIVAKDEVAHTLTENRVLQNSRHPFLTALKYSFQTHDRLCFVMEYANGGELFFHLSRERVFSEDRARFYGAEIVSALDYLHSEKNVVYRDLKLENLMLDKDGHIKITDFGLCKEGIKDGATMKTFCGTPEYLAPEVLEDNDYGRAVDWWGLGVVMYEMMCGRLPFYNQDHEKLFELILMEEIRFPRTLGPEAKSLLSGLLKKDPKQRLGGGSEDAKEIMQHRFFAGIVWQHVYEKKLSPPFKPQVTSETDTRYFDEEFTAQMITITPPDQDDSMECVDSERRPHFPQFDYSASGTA
- Measurement notes: Akt1 kinase assay, fluorescence polarization (IMAP)
- Type: biochemical
- Conditions used: Table 1, concentration bins; read-out: Concentration Range at which exemplary compounds of formula I inhibit Akt kinase activity
pIC50: −log10 of the molar value.
Measurement name: pIC50

Molecule	System tested	Result
Cc1cccc(C(=O)NC[C@@]2(N)CCN(c3ncnc4[nH]cc(C)c34)C2)c1Cl	Akt1 (Homo sapiens, UniProt P31749, S473D)	7.00 to 8.00
N[C@]1(CNC(=O)c2ccccc2)CCN(c2ncnc3[nH]cc(Cl)c23)C1	Akt1 (Homo sapiens, UniProt P31749, S473D)	8.00 to 8.60
N[C@]1(CNC(=O)c2ccc(F)c(F)c2)CCN(c2ncnc3[nH]cc(Cl)c23)C1	Akt1 (Homo sapiens, UniProt P31749, S473D)	8.00 to 8.60
Cc1c(F)cccc1NCC1(N)CCN(c2ncnc3[nH]cc(C)c23)C1 (stereo not drawn)	Akt1 (Homo sapiens, UniProt P31749, S473D)	8.00 to 8.60
N[C@]1(CNC(=O)c2c(F)cccc2Cl)CCN(c2ncnc3[nH]cc(Cl)c23)C1	Akt1 (Homo sapiens, UniProt P31749, S473D)	7.00 to 8.00
Cc1c[nH]c2ncnc(N3CCC(N)(CNc4nccc(C(F)(F)F)n4)C3)c12 (stereo not drawn)	Akt1 (Homo sapiens, UniProt P31749, S473D)	7.00 to 8.00
CCc1c[nH]c2ncnc(N3CC[C@](N)(CNC(=O)c4cccc(C)c4Cl)C3)c12	Akt1 (Homo sapiens, UniProt P31749, S473D)	7.00 to 8.00
Cc1c[nH]c2ncnc(N3CC[C@](N)(CNc4cccc(C(F)(F)F)c4)C3)c12	Akt1 (Homo sapiens, UniProt P31749, S473D)	8.60 to 9.60
Cc1c[nH]c2ncnc(N3CC[C@](N)(CNC(=O)c4ccc(F)c(F)c4)C3)c12	Akt1 (Homo sapiens, UniProt P31749, S473D)	7.00 to 8.00
Cc1c[nH]c2ncnc(N3CC[C@](N)(CNC(=O)c4cccc(F)c4F)C3)c12	Akt1 (Homo sapiens, UniProt P31749, S473D)	8.00 to 8.60
Cc1c[nH]c2ncnc(N3CC[C@](N)(CNC(=O)c4cccc(Cl)c4)C3)c12	Akt1 (Homo sapiens, UniProt P31749, S473D)	8.00 to 8.60
Cc1c[nH]c2ncnc(N3CCC(N)(CNc4cccc(Cl)c4Cl)C3)c12 (stereo not drawn)	Akt1 (Homo sapiens, UniProt P31749, S473D)	8.60 to 9.60
